test system: MCF7; experiment: Growth inhibition of human MCF7 cells by five-dose growth inhibition assay; type: functional
measured_endpoint: log10 of GI50 (log10 of the value in nM)

>  <structure_smiles_string>
N#Cc1ccc2c3c(n(CCCn4ccnc4)c(=O)c2c1)-c1ccccc1C3=O

>  <assay_system>
MCF7

>  <endpoint_value>
1.52

$$$$
>  <structure_smiles_string>
O=C1c2ccccc2-c2c1c1ccc(F)cc1c(=O)n2CCCn1ccnc1

>  <assay_system>
MCF7

>  <endpoint_value>
2.13

$$$$
>  <structure_smiles_string>
CN(C)CCCn1c2c(c3ccncc3c1=O)C(=O)c1ccccc1-2

>  <assay_system>
MCF7

>  <endpoint_value>
2.52

$$$$
>  <structure_smiles_string>
O=C1c2ccccc2-c2c1c1ccc([N+](=O)[O-])cc1c(=O)n2CCCn1ccnc1

>  <assay_system>
MCF7

>  <endpoint_value>
3.34

$$$$
>  <structure_smiles_string>
O=C1c2ccccc2-c2c1c1ccc(F)cc1c(=O)n2CCCN1CCOCC1

>  <assay_system>
MCF7

>  <endpoint_value>
2.54

$$$$
